Test target: UniProt:P41587
Test summary: Inhibition of VIP-induced cAMP elevation (% Activity cAMP)
Format: cell-based
Design: expressed in transfected cells; host or cells: HEK293 cells transfected with VIPR2 in pCDNA3.1 (as described)
Condition: 0.5 μM, Batch 2
Value type: inhibition at 0.5 µM (%)
Give bare numbers, in %.

Field: example entries. Status: answers known.
{"columns": ["Compound", "Test target", "Value measured"],
 "data": [
  ["O=C(NC1Cc2ccccc2C1)[C@H](Cc1ccccc1)C[C@H](O)CNS(=O)(=O)c1ccc([N+](=O)[O-])cc1", "UniProt:P41587", 5.7],
  ["O=C(NC1CCCC1)[C@H](Cc1ccccc1)C[C@H](O)CNS(=O)(=O)c1ccc([N+](=O)[O-])cc1", "UniProt:P41587", -2.1],
  ["O=C(NC1CCCCCC1)[C@@H](Cc1ccccc1)C[C@H](O)CNS(=O)(=O)c1ccc([N+](=O)[O-])cc1", "UniProt:P41587", 15.5],
  ["O=C([C@@H](Cc1ccccc1)C[C@H](O)CNS(=O)(=O)c1ccc([N+](=O)[O-])cc1)N1CCOCC1", "UniProt:P41587", -5.8],
  ["O=C(NCc1ccccc1)[C@H](Cc1ccccc1)C[C@H](O)CNS(=O)(=O)c1ccc([N+](=O)[O-])cc1", "UniProt:P41587", -1.1],
  ["CCN(CC)C(=O)[C@H](Cc1ccccc1)C[C@H](O)CNS(=O)(=O)c1ccc([N+](=O)[O-])cc1 [Compound B15A]", "UniProt:P41587", -8.1],
  ["O=C(NC1CCCc2ccccc21)[C@H](Cc1ccccc1)C[C@H](O)CNS(=O)(=O)c1ccc([N+](=O)[O-])cc1 (some centres unmarked) [Compound B13A]", "UniProt:P41587", 8.8],
  ["C#CCNC(=O)[C@@H](Cc1ccccc1)C[C@H](O)CNS(=O)(=O)c1ccc([N+](=O)[O-])cc1 [Compound B21B]", "UniProt:P41587", 3.1]
]}

Here are 6 compounds. What values of inhibition at 0.5 µM were reported for them?
1. CC1CCC(NC(=O)[C@H](Cc2ccccc2)C[C@H](O)CNS(=O)(=O)c2ccc([N+](=O)[O-])cc2)CC1 (some centres unmarked)
2. O=C(NCc1ccc(F)cc1F)[C@@H](Cc1ccccc1)C[C@H](O)CNS(=O)(=O)c1ccc([N+](=O)[O-])cc1 [Compound B14B]
3. O=C(NCc1ccccc1)[C@@H](Cc1ccccc1)C[C@H](O)CNS(=O)(=O)c1ccc([N+](=O)[O-])cc1
4. CCNC(=O)[C@H](Cc1ccccc1)C[C@H](O)CNS(=O)(=O)c1ccc([N+](=O)[O-])cc1 [Compound B16A]
5. O=C([C@@H](Cc1ccccc1)C[C@H](O)CNS(=O)(=O)c1ccc([N+](=O)[O-])cc1)N1CCCCC1 [Compound B18B]
6. O=C(NC1CCCC1)[C@@H](Cc1ccccc1)C[C@H](O)CNS(=O)(=O)c1ccc([N+](=O)[O-])cc1

1. -5
2. -5.4
3. -1
4. -7.1
5. 14.2
6. -7.5

====

I'd be grateful if you could share measured % Activity for these entries.
Test target: VIPR2 (Homo sapiens, UniProt P41587)
Test summary: % Activity: inhibition of VIP-induced cAMP elevation and β-arrestin recruitment (Table 2)
Type: cell-based
Parameters: expressed in transfected cells; host or cells: HEK293 cells transfected with VIPR2 in pCDNA3.1 (as described)
Numbers only, in %.

{"columns": ["Molecule", "Value measured"],
 "data": [
  ["O=C(N[C@H]1c2ccccc2C[C@H]1O)[C@H](Cc1ccccc1)C[C@H](O)CNS(=O)(=O)c1ccccc1C(F)(F)F [R]", 22.85]
]}

Here are 4 molecules. What values of % Activity were reported for them?
1. CS(=O)(=O)NC[C@@H](O)C[C@@H](Cc1ccccc1)C(=O)N[C@H]1c2ccccc2C[C@H]1O [Compound A5]
2. CC1CCC(NC(=O)[C@@H](Cc2ccccc2)C[C@H](O)CNS(=O)(=O)c2ccc([N+](=O)[O-])cc2)CC1 (stereo partly shown) [Compound B8B]
3. O=C(N[C@H]1c2ccccc2C[C@H]1O)[C@H](Cc1ccccc1)C[C@H](O)CNS(=O)(=O)c1ccc(C(=O)N2CCOCC2)cc1 [Compound X099]
4. CC(C)c1ccc(S(=O)(=O)NC[C@@H](O)C[C@@H](Cc2ccccc2)C(=O)N[C@H]2c3ccccc3C[C@H]2O)cc1 [Compound A10]

20.95
2.15
10.05
92.95

Here are 2 molecules. What values of % Activity were reported for them?
1. O=C(NC[C@@H](O)C[C@@H](Cc1ccccc1)C(=O)N[C@H]1c2ccccc2C[C@H]1O)c1ccc2ccccc2c1 [B]
2. CC(C)CS(=O)(=O)NC[C@@H](O)C[C@@H](Cc1ccccc1)C(=O)N[C@H]1c2ccccc2C[C@H]1O [Compound A11]

1. 16.6
2. 21.1

====

Test target: VIPR2 (Homo sapiens)
Sequence (P41587 24-438): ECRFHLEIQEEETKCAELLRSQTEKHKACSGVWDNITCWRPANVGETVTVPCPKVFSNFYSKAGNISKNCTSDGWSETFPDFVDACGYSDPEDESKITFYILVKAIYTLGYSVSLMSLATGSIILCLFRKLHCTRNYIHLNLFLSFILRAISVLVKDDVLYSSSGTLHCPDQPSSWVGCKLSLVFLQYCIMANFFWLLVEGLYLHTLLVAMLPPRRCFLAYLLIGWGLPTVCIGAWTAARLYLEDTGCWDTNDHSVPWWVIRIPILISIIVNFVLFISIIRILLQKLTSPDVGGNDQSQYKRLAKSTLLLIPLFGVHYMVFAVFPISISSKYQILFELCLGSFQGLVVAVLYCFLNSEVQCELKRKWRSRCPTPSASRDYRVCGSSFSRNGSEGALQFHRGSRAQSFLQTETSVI
Test summary: Inhibition of VIP-induced cAMP elevation (% Activity cAMP)
Assay type: cell-based
Parameters: expressed in transfected cells; host or cells: HEK293 cells transfected with VIPR2 in pCDNA3.1 (as described)
Condition: 0.5 μM, Batch 3
Protocol: In a further non-limiting embodiment of the invention, the ability of a compound to inhibit VIPR2 and thereby […] a VIP-induced increase in cAMP may be measured using a Homogeneous Time-Resolved Fluorescence (“HTRF® assay; Cisbio Bioassays) as used in Chu et al., 2010, Molecular Pharmacol. 7795-101. […] After at least 1 h of room-temperature incubation, HTRF signal may be read, for example using Viewlux or EnVision (PerkinElmer Life and Analytical Sciences, Waltham, Mass.). […]
Value type: inhibition at 0.5 µM (%)
Numbers only, in %.

Field: example entries. Status: answers known.
{"columns": ["Molecule", "Measurement unit", "inhibition at 0.5 µM"],
 "data": [
  ["CC(C)CNc1ccc(S(=O)(=O)NC[C@@H](O)C[C@@H](Cc2ccccc2)C(=O)N[C@H]2c3ccccc3C[C@H]2O)cc1", "%", 21.6],
  ["CNC(=O)c1ccc(S(=O)(=O)NC[C@@H](O)C[C@@H](Cc2ccccc2)C(=O)N[C@H]2c3ccccc3C[C@H]2O)cc1", "%", 13.8],
  ["CCN(CC)C(=O)c1ccc(S(=O)(=O)NC[C@@H](O)C[C@@H](Cc2ccccc2)C(=O)N[C@H]2c3ccccc3C[C@H]2O)cc1", "%", 2.5],
  ["CNc1ccc(S(=O)(=O)NC[C@@H](O)C[C@@H](Cc2ccccc2)C(=O)N[C@H]2c3ccccc3C[C@H]2O)cc1", "%", -0.9],
  ["O=C(N[C@H]1c2ccccc2C[C@H]1O)[C@H](Cc1ccccc1)C[C@H](O)CNS(=O)(=O)c1ccc([N+](=O)[O-])cc1 [Compound A27, reference compound]", "%", 74.3],
  ["O=C(O)c1ccc(S(=O)(=O)NC[C@@H](O)C[C@@H](Cc2ccccc2)C(=O)N[C@H]2c3ccccc3C[C@H]2O)cc1", "%", 7.4],
  ["O=C(N[C@H]1c2ccccc2C[C@H]1O)[C@H](Cc1ccccc1)C[C@H](O)CNS(=O)(=O)c1ccc(C(=O)N2CCCCC2)cc1", "%", -6.3],
  ["CCCCNC(=O)c1ccc(S(=O)(=O)NC[C@@H](O)C[C@@H](Cc2ccccc2)C(=O)N[C@H]2c3ccccc3C[C@H]2O)cc1", "%", -0.4]
]}

Here are 4 molecules. What values of inhibition at 0.5 µM were reported for them?
1. CC(=O)Nc1ccc(S(=O)(=O)NC[C@H](C[C@@H](Cc2ccccc2)C(=O)N[C@H]2c3ccccc3C[C@H]2OC(C)=O)OC(C)=O)cc1
2. CC(=O)Nc1ccc(S(=O)(=O)NC[C@@H](O)C[C@@H](Cc2ccccc2)C(=O)N[C@H]2c3ccccc3C[C@H]2O)cc1
3. CC(C)C(=O)Nc1ccc(S(=O)(=O)NC[C@@H](O)C[C@@H](Cc2ccccc2)C(=O)N[C@H]2c3ccccc3C[C@H]2O)cc1
4. Nc1ccc(S(=O)(=O)NC[C@@H](O)C[C@@H](Cc2ccccc2)C(=O)N[C@H]2c3ccccc3C[C@H]2O)cc1

-8.7
15.2
1
8.4

All values here come from patent US20150239831A1.
